Below, each entry is listed alongside its reported viability, T/C.
System: LG0703-F948-PDC complex spheroid viability
assay info: Anticancer human tumor LG0703-F948-PDC patient-derived lung adenocarcinoma cell line growth inhibition [RAS]
measurement setup: second compound 0.00949 µM; first compound 10 µM; active compounds read low
Excerpt: RAS pathway inhibitors in Combinations in Complex Spheroids A high-throughput screen of multi-cell type tumor spheroids was designed to identify active combinations of RAS pathway inhibitors and targeted small molecules. Complex spheroids include a stromal component modeled by human endothelial cells (HUVEC) and fibroblasts modeled by human mesenchymal stem cells (MSCs). […] Compounds. […] If the clinical Cmax for an agent had not been determined, the highest concentration tested was 10 microM. […]

Reference set, count: 3
Cc1nc(N2CCC3(CC2)COC(C)C3N)c(CO)nc1Sc1ccnc(N)c1Cl (centres undefined) + CCn1c(-c2cc(N3CCN(C)CC3)cnc2C(C)OC)c2c3cc(ccc31)-c1csc(n1)CC(NC(=O)C1CC1C)C(=O)N1CCCC(N1)C(=O)OCC(C)(C)C2
7.31%
NC1c2ccccc2OC12CCN(c1cnc3c(N4CCCc5ncccc54)n[nH]c3n1)CC2 (centres undefined) + CCn1c(-c2cccnc2C(C)OC)c2c3cc(ccc31)N1CCOC(CC(NC(=O)C(C(C)C)N(C)C(=O)C3(F)CCN(C(=O)C#CC(C)(C)N(C)C)CC3)C(=O)N3CCCC(N3)C(=O)OCC(C)(C)C2)C1
2.44%
CCC(CC)c1cc(NC2CCC(N)C2)n2nccc2n1 (centres undefined) + CCn1c(-c2cc(N3CCN(C)CC3)cnc2C(C)OC)c2c3cc(ccc31)-c1csc(n1)CC(NC(=O)C1CC1C)C(=O)N1CCCC(N1)C(=O)OCC(C)(C)C2
0.27%

Query compound follows.
For CC(Nc1ccc2c(c1)OCCn1cc(N3C(=O)OCC3C(F)F)nc1-2)C(N)=O (centres undefined) + CCn1c(-c2cc(N3CCN(C)CC3)cnc2C(C)OC)c2c3cc(ccc31)-c1csc(n1)CC(NC(=O)C1CC1C)C(=O)N1CCCC(N1)C(=O)OCC(C)(C)C2 , what is its reported viability, T/C?
1.67%

====

Test system: LG0703-F948-PDC complex spheroid viability
assay info: Anticancer human tumor LG0703-F948-PDC cell line growth inhibition [RAS];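 also: spheroids exposed to agents for 7 days; 100% = DMSO vehicle wells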
measurement setup: second compound 0.03 µM; first compound 0.01 µM; active compounds read low
Below, each entry is listed alongside its reported viability, T/C.
Form entry: value (%) — number only.

Reference set, count: 2
C=CC(=O)N1CCN(c2nc(OCC3CCCN3C)nc3c(F)c(-c4nc(N)cc(C)c4C(F)(F)F)c(Cl)cc23)C(C)C1 (stereo not drawn) + CCn1c(-c2cc(N3CCN(C)CC3)cnc2C(C)OC)c2c3cc(ccc31)-c1csc(n1)CC(NC(=O)C1CC1C)C(=O)N1CCCC(N1)C(=O)OCC(C)(C)C2
14.6
C=CC(=O)Nc1cc(Nc2nccc(-c3cn(C)c4ccccc34)n2)c(OC)cc1N(C)CCN(C)C + CCn1c(-c2cccnc2C(C)OC)c2c3cc(ccc31)N1CCOC(CC(NC(=O)C(C(C)C)N(C)C(=O)C3(F)CCN(C(=O)C#CC(C)(C)N(C)C)CC3)C(=O)N3CCCC(N3)C(=O)OCC(C)(C)C2)C1
49.6

For CC(C)n1nc(-c2ccc3oc(N)nc3c2)c2c(N)ncnc21 + CCn1c(-c2cccnc2C(C)OC)c2c3cc(ccc31)N1CCOC(CC(NC(=O)C(C(C)C)N(C)C(=O)C3(F)CCN(C(=O)C#CC(C)(C)N(C)C)CC3)C(=O)N3CCCC(N3)C(=O)OCC(C)(C)C2)C1 , what is its reported viability, T/C?
46.8

For Nc1ccn(C2OC(CO)C(O)C2(F)F)c(=O)n1 (stereo not drawn) + CCn1c(-c2cccnc2C(C)OC)c2c3cc(ccc31)N1CCOC(CC(NC(=O)C(C(C)C)N(C)C(=O)C3(F)CCN(C(=O)C#CC(C)(C)N(C)C)CC3)C(=O)N3CCCC(N3)C(=O)OCC(C)(C)C2)C1 , what is its reported viability, T/C?
41.4

For C=CC(=O)N1CCN(c2nc(OCC3CCCN3C)nc3c(F)c(-c4nc(N)cc(C)c4C(F)(F)F)c(Cl)cc23)C(C)C1 (stereo not drawn) + CCn1c(-c2cccnc2C(C)OC)c2c3cc(ccc31)N1CCOC(CC(NC(=O)C(C(C)C)N(C)C(=O)C3(F)CCN(C(=O)C#CC(C)(C)N(C)C)CC3)C(=O)N3CCCC(N3)C(=O)OCC(C)(C)C2)C1 , what is its reported viability, T/C?
89.3

For O=C(c1ccc(F)c(F)c1Nc1ccc(I)cc1F)N1CC(O)([C@@H]2CCCCN2)C1 + CCn1c(-c2cccnc2C(C)OC)c2c3cc(ccc31)N1CCOC(CC(NC(=O)C(C(C)C)N(C)C(=O)C3(F)CCN(C(=O)C#CC(C)(C)N(C)C)CC3)C(=O)N3CCCC(N3)C(=O)OCC(C)(C)C2)C1 , what is its reported viability, T/C?
76.1

For CCN1CCN(Cc2ccc(Nc3ncc(F)c(-c4cc(F)c5nc(C)n(C(C)C)c5c4)n3)nc2)CC1 + CCn1c(-c2cc(N3CCN(C)CC3)cnc2C(C)OC)c2c3cc(ccc31)-c1csc(n1)CC(NC(=O)C1CC1C)C(=O)N1CCCC(N1)C(=O)OCC(C)(C)C2 , what is its reported viability, T/C?
14.6

For O=C(c1ccc(F)c(F)c1Nc1ccc(I)cc1F)N1CC(O)([C@@H]2CCCCN2)C1 + CCn1c(-c2cc(N3CCN(C)CC3)cnc2C(C)OC)c2c3cc(ccc31)-c1csc(n1)CC(NC(=O)C1CC1C)C(=O)N1CCCC(N1)C(=O)OCC(C)(C)C2 , what is its reported viability, T/C?
8.04
